The measurements presented in this section are drawn from the supplement of paper PMC10567573.

B1: FBF1 (parent)
chain: FGDSPKAEKRQIGDQEGPRPARST

variants of: B1; experiment: protein stability index of a GFP-peptide fusion (GPS, HEK-293T) (PSI 1-6); higher = more stable; conditions: c terminus: a fixed tail appended;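 also: lentivirally expressed fusions sorted by FACS into six bins by GFP to DsRed ratio, PSI derived from sequencing read proportions per bin multiplied by bin number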
Could you please report measured protein stability index for the items listed next?
Give bare numbers.

Some variants with recorded protein stability index:
Summary for this variant, R22C : protein stability index is 5.26

Summary for this variant, R19I : protein stability index is 5.08

Summary for this variant, K6W : protein stability index is 4.57

For every listed record, write down its protein stability index.
1. D14A
2. A21Q

A:
1. 4.87
2. 5.62

For every listed record, write down its protein stability index.
1. S4A
2. D14M
3. A21D
4. A7N
5. E16P
6. D14P
7. D3Q
8. P18Y

A:
1. 4.3
2. 4.1
3. 5.5
4. 5.24
5. 5.09
6. 5.09
7. 5.25
8. 4.5

For every listed record, write down its protein stability index.
1. R10S
2. D14Q
3. P18Q
4. R10M
5. G2A
6. G13K
7. D3W
8. D14T

A:
[5.44, 4.42, 4.72, 5.06, 4.53, 5.24, 3.87, 5]

For every listed record, write down its protein stability index.
1. R19W
2. A7F
3. G17M
4. R22L
5. G17V

A:
[3.25, 3.85, 4.83, 5.38, 4.42]
